Please go through the items and note down their LC retention time.
# ASSAY TEXT: HILIC, Waters ACQUITY UPLC BEH Amide, 100 × 2.1 mm, 1.7 µm; A: water + 0.125% formic acid + 10 mM ammonium formate; B: 5% water + 95% acetonitrile + 0.125% formic acid + 10 mM ammonium formate; gradient (min/%B) 0/100 2/100 7.7/70 9.5/40 10.25/30 12.75/100 17/100
# EXPERIMENTAL SETUP: stereoisomer not certain
The figure you give is taken to be in min; do not add the unit.

Problem: Given the entry O=C(O)Cc1ccccc1Nc1c(Cl)cccc1Cl , report its measured LC retention time.
Solution: 1.08

Problem: Given the entry CCN(CC)C(=S)SSC(=S)N(CC)CC , report its measured LC retention time.
Solution: 0.93

Problem: Given the entry Nc1nc2c(ncn2CCC(CO)CO)c(=O)[nH]1 , report its measured LC retention time.
Solution: 6.71

Problem: Given the entry Oc1ccc2c3c1OC1c4[nH]c5ccccc5c4CC4(O)C(C2)N(CC2CC2)CCC314 (stereo not given) , report its measured LC retention time.
Solution: 4.45

Problem: Given the entry COc1cc2nc(N(C)CCCNC(=O)C3CCCO3)nc(N)c2cc1OC (stereo not given) , report its measured LC retention time.
Solution: 4.29

----------
# ASSAY TEXT: HILIC, Waters ACQUITY UPLC BEH Amide, 100 × 2.1 mm, 1.7 µm; A: water + 0.125% formic acid + 10 mM ammonium formate; B: 5% water + 95% acetonitrile + 0.125% formic acid + 10 mM ammonium formate; gradient (min/%B) 0/100 2/100 7.7/70 9.5/40 10.25/30 12.75/100 17/100
# EXPERIMENTAL SETUP: stereoisomer not certain
Simple rule here: LC retention time less than 6 min is met, otherwise not met.

Problem: Lab note: confirm whether the reported LC retention time for this compound is below 6 min, equality not counting. compound: NCCOP(=O)(O)O
Solution: not met

Problem: Lab note: confirm whether the reported LC retention time for this compound is below 6 min, equality not counting. compound: O=c1ccn(C2CC(O)C(COP(=O)(O)O)O2)c(=O)[nH]1 (stereo unspecified) [Deoxyuridine monophosphate]
Solution: not met

Problem: Lab note: confirm whether the reported LC retention time for this compound is below 6 min, equality not counting. compound: NC(COP(=O)(O)O)C(=O)O (stereo unspecified)
Solution: not met

Problem: Lab note: confirm whether the reported LC retention time for this compound is below 6 min, equality not counting. compound: CCn1cc(C(=O)O)c(=O)c2cc(F)c(N3CCN(C)CC3)cc21
Solution: met

Problem: Lab note: confirm whether the reported LC retention time for this compound is below 6 min, equality not counting. compound: CNCC(=O)O
Solution: not met

Problem: Lab note: confirm whether the reported LC retention time for this compound is below 6 min, equality not counting. compound: NC(N)=Nc1nc(CSCCC(N)=NS(N)(=O)=O)cs1
Solution: met

Problem: Lab note: confirm whether the reported LC retention time for this compound is below 6 min, equality not counting. compound: O=C(O)c1ccnc2ccccc12
Solution: met

Problem: Lab note: confirm whether the reported LC retention time for this compound is below 6 min, equality not counting. compound: COc1cc2c(cc1OC)C(=O)C(CC1CCN(Cc3ccccc3)CC1)C2 (stereo unspecified)
Solution: met

Problem: Lab note: confirm whether the reported LC retention time for this compound is below 6 min, equality not counting. compound: CC(C)NCC(O)COc1ccc(COCCOC(C)C)cc1 (stereo unspecified)
Solution: met

Problem: Lab note: confirm whether the reported LC retention time for this compound is below 6 min, equality not counting. compound: CC(C)=CC(=O)NCC(=O)O
Solution: met

Problem: Lab note: confirm whether the reported LC retention time for this compound is below 6 min, equality not counting. compound: CNC(C)C(=O)O (stereo unspecified)
Solution: not met

Problem: Lab note: confirm whether the reported LC retention time for this compound is below 6 min, equality not counting. compound: NCCC(=O)O
Solution: not met

Problem: Lab note: confirm whether the reported LC retention time for this compound is below 6 min, equality not counting. compound: CC(=O)N1CCCCCC1=O
Solution: met

Problem: Lab note: confirm whether the reported LC retention time for this compound is below 6 min, equality not counting. compound: CCCCC(=O)N(Cc1ccc(-c2ccccc2-c2nn[nH]n2)cc1)C(C(=O)O)C(C)C (stereo unspecified)
Solution: met

Problem: Lab note: confirm whether the reported LC retention time for this compound is below 6 min, equality not counting. compound: Nc1c2c(nc3c1CCC3)CCCC2
Solution: met

Problem: Lab note: confirm whether the reported LC retention time for this compound is below 6 min, equality not counting. compound: O=C(O)c1ccccc1C(=O)O
Solution: met

Problem: Lab note: confirm whether the reported LC retention time for this compound is below 6 min, equality not counting. compound: COc1ccc2[nH]cc(CCNC(C)=O)c2c1
Solution: met

Problem: Lab note: confirm whether the reported LC retention time for this compound is below 6 min, equality not counting. compound: CCC(=O)OC(CC(=O)[O-])C[N+](C)(C)C (stereo unspecified)
Solution: not met

Problem: Lab note: confirm whether the reported LC retention time for this compound is below 6 min, equality not counting. compound: COc1ccc(OC)c(C(O)C(C)N)c1 (stereo unspecified)
Solution: met

Problem: Lab note: confirm whether the reported LC retention time for this compound is below 6 min, equality not counting. compound: O=c1ccn(C2OC(CO)CC2O)c(=O)[nH]1 (stereo unspecified)
Solution: met

----------
# ASSAY TEXT: HILIC, Waters ACQUITY UPLC BEH Amide, 100 × 2.1 mm, 1.7 µm; A: water + 0.125% formic acid + 10 mM ammonium formate; B: 5% water + 95% acetonitrile + 0.125% formic acid + 10 mM ammonium formate; gradient (min/%B) 0/100 2/100 7.7/70 9.5/40 10.25/30 12.75/100 17/100
# EXPERIMENTAL SETUP: stereoisomer not certain
Please go through the items and note down their LC retention time.
The figure you give is taken to be in min; do not add the unit.

Problem: Given the entry CC=C1N(C)C(C)CC1(c1ccccc1)c1ccccc1 (stereo not given) [EDDP] , report its measured LC retention time.
Solution: 1.9

Problem: Given the entry Nc1cc(CC(N)C(=O)O)ccc1O (stereo not given) [3-Aminotyrosine] , report its measured LC retention time.
Solution: 8.06

Problem: Given the entry CC(N)C(=O)NC(C)C(=O)O (stereo not given) [Ala-Ala] , report its measured LC retention time.
Solution: 8.41

Problem: Given the entry Cc1cc(=O)oc2cc(O)ccc12 [4-Methylumbelliferone] , report its measured LC retention time.
Solution: 1.22

Problem: Given the entry O=C(O)C=Cc1ccc(Cn2ccnc2)cc1 [Ozagrel] , report its measured LC retention time.
Solution: 2.99

Problem: Given the entry CC(C)CC1NC(=O)C2CCCN2C1=O (stereo not given) [Cyclo(Leu-Pro)] , report its measured LC retention time.
Solution: 1.29

Problem: Given the entry Cc1ncsc1CCO [4-Methyl-5-thiazoleethanol] , report its measured LC retention time.
Solution: 1.21

Problem: Given the entry CSCCC(NC(C)=O)C(=O)O (stereo not given) [N-Acetylmethionine] , report its measured LC retention time.
Solution: 3.23

Problem: Given the entry CC(C)c1ccc2oc3nc(N)c(C(=O)O)cc3c(=O)c2c1 [Amlexanox] , report its measured LC retention time.
Solution: 1.81

Problem: Given the entry O=C(O)C1CSCN1 (stereo not given) [Thiazolidine-4-carboxylic acid] , report its measured LC retention time.
Solution: 6.92

----------
# ASSAY TEXT: HILIC, Waters ACQUITY UPLC BEH Amide, 100 × 2.1 mm, 1.7 µm; A: water + 0.125% formic acid + 10 mM ammonium formate; B: 5% water + 95% acetonitrile + 0.125% formic acid + 10 mM ammonium formate; gradient (min/%B) 0/100 2/100 7.7/70 9.5/40 10.25/30 12.75/100 17/100
# EXPERIMENTAL SETUP: stereoisomer not certain
Simple rule here: LC retention time less than 5 min is YES, otherwise NO.

Problem: Lab note: confirm whether the reported LC retention time for this compound is below 5 min, equality not counting. compound: OCc1c[nH]c2ccccc12
Solution: YES

Problem: Lab note: confirm whether the reported LC retention time for this compound is below 5 min, equality not counting. compound: NC(=O)c1[nH]cnc1N [5-Aminoimidazole-4-carboxamide]
Solution: YES

Problem: Lab note: confirm whether the reported LC retention time for this compound is below 5 min, equality not counting. compound: CN1C(=O)COc2c(C(=O)NC3CN4CCC3CC4)cc(Cl)cc21 (stereo unspecified)
Solution: YES

Problem: Lab note: confirm whether the reported LC retention time for this compound is below 5 min, equality not counting. compound: NC(=O)NCCC(=O)O
Solution: NO

Problem: Lab note: confirm whether the reported LC retention time for this compound is below 5 min, equality not counting. compound: CCN(CC)CCOC(=O)C(O)(c1ccccc1)c1ccccc1
Solution: YES

Problem: Lab note: confirm whether the reported LC retention time for this compound is below 5 min, equality not counting. compound: COc1ccc2[nH]cc(C3=CCNCC3)c2c1
Solution: YES

Problem: Lab note: confirm whether the reported LC retention time for this compound is below 5 min, equality not counting. compound: NC(CS)C(=O)O (stereo unspecified)
Solution: NO

Problem: Lab note: confirm whether the reported LC retention time for this compound is below 5 min, equality not counting. compound: CC(=O)NO [Acetohydroxamic acid]
Solution: YES

Problem: Lab note: confirm whether the reported LC retention time for this compound is below 5 min, equality not counting. compound: CSc1nc2cc(Oc3cccc(Cl)c3Cl)c(Cl)cc2[nH]1
Solution: YES

Problem: Lab note: confirm whether the reported LC retention time for this compound is below 5 min, equality not counting. compound: Cn1c(=O)[nH]c2ncn(C)c2c1=O
Solution: YES

Problem: Lab note: confirm whether the reported LC retention time for this compound is below 5 min, equality not counting. compound: CNCCCCC(N)C(=O)O (stereo unspecified)
Solution: NO

Numbers sourced from the RepoRT retention time repository.
